Below is a list of entries, each paired with its recorded AC50 value.
Biological target: POLγA:G848S (Homo sapiens, UniProt P54098, G848S)
Sequence (P54098 1-1239 G848S): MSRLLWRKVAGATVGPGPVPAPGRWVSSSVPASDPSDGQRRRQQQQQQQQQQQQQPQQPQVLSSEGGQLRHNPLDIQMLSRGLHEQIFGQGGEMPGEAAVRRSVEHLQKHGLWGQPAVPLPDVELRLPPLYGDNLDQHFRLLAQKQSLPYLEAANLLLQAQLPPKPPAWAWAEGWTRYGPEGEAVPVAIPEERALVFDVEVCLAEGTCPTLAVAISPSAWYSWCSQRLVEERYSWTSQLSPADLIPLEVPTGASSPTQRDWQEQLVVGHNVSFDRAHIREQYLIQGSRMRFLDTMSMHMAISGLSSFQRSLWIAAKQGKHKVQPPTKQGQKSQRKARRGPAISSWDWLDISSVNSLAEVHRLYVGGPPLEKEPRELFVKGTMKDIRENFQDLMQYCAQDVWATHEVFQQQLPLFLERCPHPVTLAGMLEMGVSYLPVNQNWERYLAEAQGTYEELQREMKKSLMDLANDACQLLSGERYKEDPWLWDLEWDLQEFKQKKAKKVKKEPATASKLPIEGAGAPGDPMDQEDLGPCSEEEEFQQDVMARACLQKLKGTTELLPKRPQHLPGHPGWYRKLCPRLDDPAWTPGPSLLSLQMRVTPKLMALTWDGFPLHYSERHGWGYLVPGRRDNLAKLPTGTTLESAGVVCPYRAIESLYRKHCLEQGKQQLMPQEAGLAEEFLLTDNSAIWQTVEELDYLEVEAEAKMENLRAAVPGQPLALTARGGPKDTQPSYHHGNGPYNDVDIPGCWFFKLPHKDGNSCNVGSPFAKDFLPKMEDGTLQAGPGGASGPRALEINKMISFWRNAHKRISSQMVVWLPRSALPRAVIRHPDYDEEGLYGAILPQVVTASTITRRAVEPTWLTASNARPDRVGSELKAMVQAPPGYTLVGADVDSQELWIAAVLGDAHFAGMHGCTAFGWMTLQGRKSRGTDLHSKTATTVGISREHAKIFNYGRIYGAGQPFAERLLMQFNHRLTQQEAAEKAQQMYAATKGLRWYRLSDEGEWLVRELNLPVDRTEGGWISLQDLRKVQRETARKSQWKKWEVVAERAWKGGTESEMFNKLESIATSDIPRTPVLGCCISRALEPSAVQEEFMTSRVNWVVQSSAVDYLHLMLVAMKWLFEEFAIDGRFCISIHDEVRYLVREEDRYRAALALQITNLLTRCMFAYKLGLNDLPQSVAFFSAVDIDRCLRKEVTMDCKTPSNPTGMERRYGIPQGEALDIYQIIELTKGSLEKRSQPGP
Sequence (Q9UHN1 1-485 partner): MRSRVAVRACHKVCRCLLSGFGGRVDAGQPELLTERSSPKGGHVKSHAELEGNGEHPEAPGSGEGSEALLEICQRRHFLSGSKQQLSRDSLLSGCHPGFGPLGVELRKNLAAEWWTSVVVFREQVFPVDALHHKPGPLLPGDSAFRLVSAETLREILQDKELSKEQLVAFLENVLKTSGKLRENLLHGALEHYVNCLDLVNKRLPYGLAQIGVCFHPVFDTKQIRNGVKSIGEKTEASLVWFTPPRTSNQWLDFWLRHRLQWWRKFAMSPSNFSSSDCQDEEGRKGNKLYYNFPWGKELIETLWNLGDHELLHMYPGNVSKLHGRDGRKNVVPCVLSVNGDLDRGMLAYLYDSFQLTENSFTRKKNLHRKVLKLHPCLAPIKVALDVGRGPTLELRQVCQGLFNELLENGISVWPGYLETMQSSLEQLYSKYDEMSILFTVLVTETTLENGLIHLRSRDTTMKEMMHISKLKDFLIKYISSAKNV
Assay: DNA polymerization assay, POLγA:G848S mutant
Assay type: biochemical
Conditions: stimulation of polymerase activity, primed M13mp18 ssDNA, 37° C. 2 hours; read-out: G848S AC50

COMPOUND	EXPERIMENTAL_SYSTEM	RESULT_VALUE
O=S(=O)(Nc1csc(-c2ccccc2)n1)c1ccc(F)cc1Cl	POLγA:G848S (Homo sapiens, UniProt P54098, G848S)	> 100 µM
Cc1cc(S(=O)(=O)Nc2nc(-c3ccccc3)no2)c(C)cc1Cl	POLγA:G848S (Homo sapiens, UniProt P54098, G848S)	> 100 µM
Cc1cc(S(=O)(=O)NC2CCOc3c(Cl)cccc32)c(C)cc1Cl (centres unmarked)	POLγA:G848S (Homo sapiens, UniProt P54098, G848S)	> 10 µM
Cc1cc(S(=O)(=O)Nc2cc(-c3ccccc3)no2)c(C)cc1Cl	POLγA:G848S (Homo sapiens, UniProt P54098, G848S)	> 10 µM
Cc1cc(S(=O)(=O)Nc2cccc(C(=O)N3CCN(C)CC3)c2)c(C)cc1Cl	POLγA:G848S (Homo sapiens, UniProt P54098, G848S)	> 100 µM
Cc1ccccc1S(=O)(=O)Nc1cccc(C(=O)N2CCOC[C@@H]2C)c1	POLγA:G848S (Homo sapiens, UniProt P54098, G848S)	> 100 µM
Cc1nc2cc(NS(=O)(=O)c3cc(C)c(Cl)cc3C)ccc2o1	POLγA:G848S (Homo sapiens, UniProt P54098, G848S)	> 100 µM
Cc1cc(S(=O)(=O)Nc2ccc(F)c(-c3nccs3)c2)c(C)cc1Cl	POLγA:G848S (Homo sapiens, UniProt P54098, G848S)	> 100 µM
Cc1cc(NS(=O)(=O)c2cc(C)c(Cl)cc2C)cc(-c2ncc(C)s2)c1	POLγA:G848S (Homo sapiens, UniProt P54098, G848S)	> 100 µM
Cc1ccc(C)c(S(=O)(=O)Nc2cccc(C(=O)NCc3ccccc3)c2)c1	POLγA:G848S (Homo sapiens, UniProt P54098, G848S)	> 100 µM

Exam item: Query (compound): Cc1ccc(C)c(S(=O)(=O)Nc2ccc(C(=O)N[C@@H](C)C3CC3)cc2)c1 ; field requested: AC50
Marked response: > 100 µM

Exam item: Query (compound): Cc1cc(S(=O)(=O)Nc2nc(-c3ccccc3)co2)c(C)cc1Cl ; field requested: AC50
Marked response: > 100 µM

Exam item: Query (compound): Cc1cc(S(=O)(=O)Nc2cn(C)c(-c3ccccc3)n2)c(C)cc1Cl ; field requested: AC50
Marked response: > 10 µM

Exam item: Query (compound): O=S(=O)(Nc1csc(-c2ccccc2)n1)c1ccc(Cl)cc1 ; field requested: AC50
Marked response: > 100 µM
